Tested on: S. cerevisiae tim10 strain, luminescence counterscreen
assay comment: TIM10 strain luminescence inhibitors – S. cerevisiae, uHTS hits, counter-screen for tim23-1 inhibitor project, dose response (AID 504672);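 also: yeast grew roughly 22 hours at 25 °C before the luminescence read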
Active and inactive are the calls of the source. Rule as the data show it: active = IC50 below about 71 µM; inactive = the rest.
Classes used: Y (active), N (inactive)

molecule	label class
CC(C)CCN1C(=O)c2cccc3c(N)ccc(c23)C1=O	Y
c1ccc2[nH]c(-c3ccc4c(c3)OCO4)nc2c1	Y
N#C/C(=C\c1ccc(Cl)cc1)C(=O)Nc1cccnc1	Y
CCN(CC)c1ccc(C(=O)Nc2cccc(F)c2)cc1	Y
O=C1c2ccccc2C(=O)N1c1nc(-c2cccs2)cs1	Y
C=CCn1c(SCc2cc(=O)n3ccsc3n2)nc2cc(Cl)ccc2c1=O	Y
CO/C(N)=C(\C#N)N=Cc1ccccc1Cl	Y
O=C(Nc1ccc(-c2cn3ccccc3n2)cc1)c1cccs1	N
Cc1cc2cc(CNC(=O)c3ccc(C)c([N+](=O)[O-])c3)ccc2[nH]1	Y
O=CN(/C=C1\Sc2ccccc2C1=O)Cc1ccccc1	Y
O=C(Nc1ccc2nc(-c3ccccc3)[nH]c2c1)c1cccs1	Y
Cc1cc(=O)oc2c1c(C(F)(F)F)nn2-c1ccccc1	Y
CC(C)(C)c1csc(NC(=O)c2ccc(Cl)s2)n1	Y
Cc1ccc(SCC(=O)OCn2nnc3ccccc3c2=O)cc1C	Y
CN1CCc2nc3sc(C(=O)C45CC6CC(CC(C6)C4)C5)c(N)c3cc2C1	Y
Cc1ccccc1C(=O)Oc1cccc2c(O)cccc12	Y
CC[C@@]1(c2ccccc2OC)ON(c2ccccc2C(F)(F)F)C1=O	Y
NNC(=O)c1nc(-c2ccccc2)cc(-c2ccccc2)n1	Y
Cc1ccc2occ(/C=N/NC(=O)c3ccccc3Br)c(=O)c2c1	Y
O=C(Nc1cccc(Br)c1)C1CCCC1	Y
C=C1CCc2c([nH]c3ccc(OCC(C)C)cc23)C1=O	Y
Cc1ccc2c(c1)C(=O)N1[C@H]3c4ccccc4OC[C@@H]3[C@H](c3ccccc3)[C@]1(C)C(=O)N2	Y
N#C/C(=C\c1ccc(O)cc1)c1nc2ccccc2o1	Y
CSc1nnc(C)c(/C=C/NOCc2ccc(Cl)cc2)n1	Y
COc1ccc(NC(=O)C#Cc2ccccc2)cc1	Y
COc1cccc(Nc2nc(-c3ccccc3)nc3ccccc23)c1	Y
Oc1ccc2ccccc2c1/C=N/c1nccs1	Y
N#C/C(=C\c1ccc(Cl)cc1)C(=O)NC1CC1	Y
O=C(Nc1ccc(-c2cn3c(n2)SCC3)cc1)c1ccco1	Y
Cc1csc2nc(O)c(C(=O)NC3CCCCC3)c(=O)n12	Y
O=C(Nc1nccs1)c1ccc(Cl)s1	Y
COc1ccc(-c2ccc(NC(=O)c3ccco3)cc2)nn1	Y
O=C(N/N=C/C(Cl)=C\c1ccccc1)c1cccs1	Y
COc1cc(C(=O)N/N=C/c2coc3ccc(Cl)cc3c2=O)ccc1O	Y
Oc1ccccc1C1NN=C(c2ccccc2)S1 (centres undefined)	N
O=C(CCl)Nc1cccc(-c2cnc3ccccc3n2)c1	Y
N#C/C(N)=C(/C#N)N=Cc1cccc(Cl)c1	Y
Cc1nc2scc(C)n2c(=O)c1S(=O)(=O)Nc1ccc(N2CCOCC2)cc1	N
O=C(Nc1ccc(Nc2ccccc2)cc1)c1ccc(Cl)c([N+](=O)[O-])c1	Y
Brc1ccc(-n2cnc(-c3ccccc3)c2)cc1	Y
CCN(CC)c1ccc(/C=N/NC(=O)c2ccc3c(c2)OCCO3)cc1	Y
O=C(Nc1ccc(F)c(Cl)c1)c1ccccc1	Y
Cc1ccc(-c2nnc(N3CCC(C)CC3)c3ccccc23)cc1	Y
COc1ccc(CCN(/C=C2\Sc3ccccc3C2=O)C(C)=O)cc1OC	Y
CC(C)c1nc(NCCO)c(C#N)c2c1CCCC2	Y
Cn1c(-c2sc3ccccc3c2Cl)n[nH]c1=S	Y
COc1cc(NC(=O)c2cccs2)ccc1NC(=O)c1ccccc1Cl	Y
Cc1ccc(C(=O)Nc2nc(C(C)(C)C)cs2)s1	Y
O=C(N/N=C/c1ccc(Br)s1)c1c[nH]c2ccccc12	Y
